Catalogue of Plant response rating, Ryegrass, Italian values
test system: Italian ryegrass; experiment: Test C pre-/postemergence test; assay type: in vivo, Lolium multiflorum; conditions: Postemergence, 250 g ai/ha; scale 0 to 100, 0 no effect, 100 complete control

Solved cases (3 shown):
Cc1cc[n+]([O-])c([S+]([O-])Cc2c(C(F)(F)F)nn(C)c2OC(F)F)c1 (stereo not shown)    30
Cn1nc(C(F)(F)F)c(C[S+]([O-])c2ccc(F)c[n+]2[O-])c1OC(F)F (stereo not shown)    90
Cc1cc[n+]([O-])c(S(=O)(=O)Cc2c(C(F)(F)F)nn(C)c2OC(F)F)c1    0

Query block: Lookup: Plant response rating, Ryegrass, Italian / Italian ryegrass / Cn1nc(C(F)(F)F)c(C[S+]([O-])c2cccc[n+]2[O-])c1OCC(F)(F)C(F)(F)F (stereo not shown)
Result block: 30

---

tested on: catchweed bedstraw; assay: Test C pre-/postemergence test; assay type: in vivo, Galium aparine; conditions: 62 g ai/ha, Preemergence; scale 0 to 100
value.type: Galium plant response rating
I only need the number, thanks.

Solved cases (8 shown):
Cc1cc[n+]([O-])c(S(=O)(=O)Cc2c(C(F)(F)F)nn(C)c2OC(C)C(F)(F)F)c1 (stereo not shown)    80
CCc1cc[n+]([O-])c(S(=O)(=O)Cc2c(C(F)(F)F)nn(C)c2OCC(F)(F)F)c1    100
Cn1nc(C(F)(F)F)c(C[S+]([O-])c2ccc(F)c[n+]2[O-])c1OC(F)F (stereo not shown)    70
Cn1nc(C(F)(F)F)c(CS(=O)(=O)c2ccc(Cl)c[n+]2[O-])c1Cl    0
CCc1cc[n+]([O-])c(S(=O)(=O)Cc2c(C(F)(F)F)nn(C)c2OC(F)F)c1    95
CC(C)c1cc[n+]([O-])c([S+]([O-])Cc2c(C(F)(F)F)nn(C)c2OC(F)F)c1 (stereo not shown)    90
Cn1nc(C(F)(F)F)c(C[S+]([O-])c2cc(Br)cc[n+]2[O-])c1Cl (racemic)    100
CC(Oc1c(C[S+]([O-])c2cccc[n+]2[O-])c(C(F)(F)F)nn1C)C(F)(F)F (stereo not shown)    100

Query block: Lookup: Galium plant response rating / catchweed bedstraw / CCc1cc[n+]([O-])c([S+]([O-])Cc2c(C(F)(F)F)nn(C)c2OC(F)F)c1 (stereo not shown)
Result block: 50

Query block: Lookup: Galium plant response rating / catchweed bedstraw / Cn1nc(C(F)(F)F)c(C[S+]([O-])c2ccc(Cl)c[n+]2[O-])c1OCC(F)F (stereo not shown)
Result block: 100

Query block: Lookup: Galium plant response rating / catchweed bedstraw / Cn1nc(C(F)(F)F)c(C[S+]([O-])c2cc(C(C)(C)C)cc[n+]2[O-])c1OC(F)F (racemic)
Result block: 98

Query block: Lookup: Galium plant response rating / catchweed bedstraw / Cn1nc(C(F)(F)F)c(C[S+]([O-])c2ccc(Cl)c[n+]2[O-])c1OCC(F)(F)F (racemic)
Result block: 100

Query block: Lookup: Galium plant response rating / catchweed bedstraw / Cc1cc[n+]([O-])c(S(=O)(=O)Cc2c(C(F)(F)F)nn(C)c2OCC(F)(F)F)c1
Result block: 100

---

system: downy brome; assay: Test C pre-/postemergence test; format: in vivo, Bromus tectorum; details: Postemergence, 62 g ai/ha; scale 0 to 100, 0 no effect, 100 complete control
value.type: Plant response rating, Bromegrass, Downy

Query block: Given CCn1nc(C(F)(F)F)c(C(C)S(=O)(=O)c2cccc[n+]2[O-])c1OCC(F)(F)F (centres unmarked) [Compound 69] , state its recorded Plant response rating, Bromegrass, Downy.
Result block: 0

Query block: Given Cn1nc(C(F)(F)F)c(C[S+]([O-])c2ccc(F)c[n+]2[O-])c1OC(F)F (centres unmarked) [Compound 58] , state its recorded Plant response rating, Bromegrass, Downy.
Result block: 0

Query block: Given [O-][n+]1cc(Cl)ccc1[S+]([O-])Cc1c(C(F)(F)F)nn(CC(F)(F)F)c1Cl (centres unmarked) [Compound 47] , state its recorded Plant response rating, Bromegrass, Downy.
Result block: 0

Query block: Given Cn1nc(C(F)(F)F)c(C[S+]([O-])c2ccc(F)c[n+]2[O-])c1OCC(F)(F)F (centres unmarked) [Compound 67] , state its recorded Plant response rating, Bromegrass, Downy.
Result block: 10

Query block: Given Cn1nc(C(F)(F)F)c(C[S+]([O-])c2ccc(Cl)c[n+]2[O-])c1OC(F)F (centres unmarked) [Compound 6] , state its recorded Plant response rating, Bromegrass, Downy.
Result block: 30

---

test system: annual bluegrass; test: Test F preemergence test; assay type: in vivo, Poa annua; conditions: Preemergence; 31 g ai/ha; scale 0 to 100
Catalogue of Plant response rating, Bluegrass values

Solved cases (3 shown):
CCn1nc(C(F)(F)F)c(CS(=O)(=O)c2cccc[n+]2[O-])c1OCC(F)(F)F    65
Cn1nc(C(F)(F)F)c(C[S+]([O-])c2ccc(Cl)c[n+]2[O-])c1OCC(F)F (stereo not shown)    95
CC(c1c(C(F)(F)F)nn(C)c1OC(F)F)S(=O)(=O)c1cccc[n+]1[O-] (stereo not shown)    75

As a next step, examine the molecule that follows.
Query block: Lookup: Plant response rating, Bluegrass / annual bluegrass / CC(Oc1c(CS(=O)(=O)c2cccc[n+]2[O-])c(C(F)(F)F)nn1C)C(F)(F)F (stereo not shown)
Result block: 60

---

system: rice; assay: Test C flooded paddy test; assay type: in vivo, Oryza sativa; conditions: Flood, 62 g ai/ha; scale 0 to 100, 0 no effect, 100 complete control; 13 to 15 days
Catalogue of Plant response rating, Rice values
I only need the number, thanks.

Solved cases (5 shown):
Cn1nc(C(F)(F)F)c(C[S+]([O-])c2cc(C(F)(F)F)cc[n+]2[O-])c1Cl (racemic) [Compound 34]    0
Cn1nc(C(F)(F)F)c(CS(=O)(=O)c2ccc(Cl)c[n+]2[O-])c1OC(F)F [Compound 7]    0
Cc1cc[n+]([O-])c([S+]([O-])Cc2c(C(F)(F)F)nn(C)c2Cl)c1 (racemic) [Compound 20]    0
Cn1nc(C(F)(F)F)c(C[S+]([O-])c2ccc(Br)c[n+]2[O-])c1OC(F)F (racemic) [Compound 16]    0
Cc1cc[n+]([O-])c([S+]([O-])Cc2c(C(F)(F)F)nn(CC(F)(F)F)c2Cl)c1 (centres unmarked) [Compound 48]    0

Query block: Lookup: Plant response rating, Rice / rice / Cn1nc(C(F)(F)F)c(C[S+]([O-])c2cc(F)cc[n+]2[O-])c1Cl (racemic) [Compound 42]
Result block: 15

Query block: Lookup: Plant response rating, Rice / rice / Cn1nc(C(F)(F)F)c(CS(=O)(=O)c2ccc(Cl)c[n+]2[O-])c1Cl [Compound 18]
Result block: 40

Query block: Lookup: Plant response rating, Rice / rice / Cc1cc[n+]([O-])c([S+]([O-])Cc2c(C(F)(F)F)nn(C)c2OCC(F)(F)F)c1 (racemic) [Compound 30]
Result block: 0

Query block: Lookup: Plant response rating, Rice / rice / CC(c1c(C(F)(F)F)nn(CC(F)(F)F)c1Cl)[S+]([O-])c1cccc[n+]1[O-] (centres unmarked) [Compound 46]
Result block: 10

Query block: Lookup: Plant response rating, Rice / rice / Cc1cc[n+]([O-])c(S(=O)(=O)C(C)c2c(C(F)(F)F)nn(C)c2Cl)c1 (racemic) [Compound 14]
Result block: 0

---

system: mustard; assay: Test F preemergence test; format: in vivo, Brassica nigra; details: 125 g ai/ha, preemergence, scale 0 to 100
value.type: Black Mustard plant response rating

CCn1nc(C(F)(F)F)c(CS(=O)(=O)c2cccc[n+]2[O-])c1OCC(F)(F)F [Compound 63]    90
Cc1cc[n+]([O-])c(S(=O)(=O)C(C)c2c(C(F)(F)F)nn(C)c2OC(F)F)c1 (stereo not shown) [Compound 11]    100
Cn1nc(OC(F)F)c(CS(=O)(=O)c2cccc[n+]2[O-])c1C(F)(F)F [Compound 80]    50

As a next step, examine the molecule that follows.
Query block: Given Cc1cc[n+]([O-])c(S(=O)(=O)Cc2c(C(F)(F)F)nn(C)c2OCC(F)(F)F)c1 [Compound 31] , state its recorded Black Mustard plant response rating.
Result block: 100

---

test system: johnsongrass; experiment: Test C pre-/postemergence test; format: in vivo, Sorghum halepense; settings: 125 g ai/ha, preemergence; scale 0 (no effect) to 100 (complete control)
value.type: Johnsongrass plant response rating
I only need the number, thanks.

Solved cases (6 shown):
Cn1nc(C(F)(F)F)c(C[S+]([O-])c2ccc(F)c[n+]2[O-])c1OCC(F)(F)F (stereo not shown) [Compound 67]    80
Cc1cc[n+]([O-])c(S(=O)(=O)Cc2c(C(F)(F)C(F)(F)F)nn(C)c2OCC(F)(F)F)c1 [Compound 99]    100
CC(Oc1c(C[S+]([O-])c2ccc(Cl)c[n+]2[O-])c(C(F)(F)F)nn1C)C(F)(F)F (stereo not shown) [Compound 87]    100
Cn1nc(C(F)(F)F)c(C[S+]([O-])c2cccc[n+]2[O-])c1OCC(F)F (stereo not shown) [Compound 75]    100
CCn1nc(C(F)(F)F)c(C[S+]([O-])c2cc(C)cc[n+]2[O-])c1OCC(F)(F)F (racemic) [Compound 66]    80
CCn1nc(C(F)(F)F)c(C[S+]([O-])c2cccc[n+]2[O-])c1OCC(F)(F)F (racemic) [Compound 65]    100

As a next step, examine the compound that follows.
Query block: Given Cn1nc(C(F)(F)F)c(C[S+]([O-])c2ccc(F)c[n+]2[O-])c1OC(F)F (stereo not shown) [Compound 58] , state its recorded Johnsongrass plant response rating.
Result block: 100
